test: Chemical stability in CD3CN up to 7 days by 31P NMR method; format: physicochemical; conditions: read-out: Stability
measure: remaining at 168 h (%)
Answers are plain numbers, in %.

query: In one line, give reported remaining at 168 h of the entry COc1ccc(C(OC[C@H]2O[C@@H](n3cc(C)c(=O)[nH]c3=O)C[C@@H]2OP(OC2CSSCC2OCc2ccccc2)N(C(C)C)C(C)C)(c2ccccc2)c2ccc(OC)cc2)cc1 (stereo partly specified) .
result: 95
